Kd by entry:
- Target or test system: CD3 (antigen of the binding affinity table of Example 1) (UniProt P07766)
- Assay summary: kinetic fit with two-state parameters; method not given
# unit: nM | format: bare number

Worked cases, Kd given:
Binder: H2L2 (antibody, V domains shown) VH: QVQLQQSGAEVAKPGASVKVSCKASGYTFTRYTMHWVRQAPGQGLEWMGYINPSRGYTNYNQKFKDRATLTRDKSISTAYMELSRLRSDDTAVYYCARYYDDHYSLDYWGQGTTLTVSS VL: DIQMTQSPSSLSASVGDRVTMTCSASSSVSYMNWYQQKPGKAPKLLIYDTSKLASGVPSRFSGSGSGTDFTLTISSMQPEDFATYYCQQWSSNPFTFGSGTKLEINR
Value reported: 0.892

Binder: H3L3 (antibody, V domains shown) VH: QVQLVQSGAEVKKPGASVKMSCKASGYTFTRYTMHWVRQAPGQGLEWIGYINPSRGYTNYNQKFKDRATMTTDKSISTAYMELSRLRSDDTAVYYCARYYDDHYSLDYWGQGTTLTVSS VL: DIQLTQSPSSLSASVGDRVTITCSASSSVSYMNWYQQKPGKAPKLLIYDTSKLASGVPSRFSGSGSGTDYTLTISSLQPEDFATYYCQQWSSNPFTFGSGTKLEINR
Value reported: 1.38

Binder: H4L5 (antibody, V domains shown) VH: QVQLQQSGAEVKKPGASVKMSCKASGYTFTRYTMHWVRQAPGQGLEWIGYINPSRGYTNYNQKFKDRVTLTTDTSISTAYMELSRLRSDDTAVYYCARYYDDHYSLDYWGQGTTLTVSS VL: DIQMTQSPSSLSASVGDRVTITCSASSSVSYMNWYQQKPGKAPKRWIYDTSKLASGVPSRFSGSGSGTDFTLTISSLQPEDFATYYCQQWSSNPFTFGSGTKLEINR
Value reported: 9.96

Binder: H4L2 (antibody, V domains shown) VH: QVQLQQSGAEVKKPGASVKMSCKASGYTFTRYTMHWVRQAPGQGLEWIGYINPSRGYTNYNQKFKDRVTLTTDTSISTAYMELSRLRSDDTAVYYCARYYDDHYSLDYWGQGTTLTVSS VL: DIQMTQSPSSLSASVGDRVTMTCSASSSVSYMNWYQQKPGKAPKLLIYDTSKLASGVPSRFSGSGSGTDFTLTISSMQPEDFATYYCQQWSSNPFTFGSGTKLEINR
Value reported: 15.3

Kd recorded for this binder, H2L1 (antibody, V domains shown) VH: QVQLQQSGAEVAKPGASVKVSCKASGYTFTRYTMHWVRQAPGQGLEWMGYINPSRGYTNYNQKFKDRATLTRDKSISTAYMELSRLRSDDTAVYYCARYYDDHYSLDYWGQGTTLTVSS VL: DIQMTQSPSSLSASVGDRVTMTCSASSSVSYMNWYQQKPGKAPKRLIYDTSKLASGVPSRFSGSGSGTDFTLTISSLQPEDFATYYCQQWSSNPFTFGSGTKLEINR , is 0.808
